target: NL20 human bronchial epithelial cells expressing human Z-AAT (Homo sapiens, UniProt P01009, E366K); experiment: AAT Function Assay (MSD Assay NL20-SI Cell Line); details: functionally active AAT (AAT-hNE complex, MSD) from NL20 cells expressing human Z-AAT; read-out: NL20 Functional EC50
Sequence (P01009 25-418 E366K): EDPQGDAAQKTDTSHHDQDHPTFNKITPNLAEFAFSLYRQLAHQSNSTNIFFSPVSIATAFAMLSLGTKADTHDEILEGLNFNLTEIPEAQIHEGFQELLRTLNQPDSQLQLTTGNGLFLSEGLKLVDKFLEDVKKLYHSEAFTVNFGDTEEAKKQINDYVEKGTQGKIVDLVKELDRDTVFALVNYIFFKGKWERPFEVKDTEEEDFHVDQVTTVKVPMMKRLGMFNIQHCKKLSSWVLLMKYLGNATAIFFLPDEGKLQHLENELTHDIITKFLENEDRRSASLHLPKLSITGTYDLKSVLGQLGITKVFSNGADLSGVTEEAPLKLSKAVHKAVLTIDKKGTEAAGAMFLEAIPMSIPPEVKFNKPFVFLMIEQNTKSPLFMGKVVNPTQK
pEC50: −log10 of the molar value.
Recorded pEC50 values for a group of compounds are listed next.

-- ask // Input: O=C(O)c1ccc(Oc2nc(C3CCOCC3)c(-c3ccc(F)cc3)c3cc4cn[nH]c4cc23)c(F)c1F [Compound 68] . Output its pEC50 only.
-- reply > 5.94

-- ask // Input: COc1cc(Oc2nc3cc4[nH]ncc4cc3c(-c3ccc(F)cc3)c2C(C)C)ccc1C(=O)O [Compound 169] . Output its pEC50 only.
-- reply > 5.94

-- ask // Input: O=C(O)[C@]1(F)C[C@@H](Oc2nc(C3CCOCC3)c(-c3ccc(F)c(F)c3)c3cc4cn[nH]c4cc23)C1 [Compound 63] . Output its pEC50 only.
-- reply > 5.94

-- ask // Input: COc1cc(C(=O)O)ccc1-c1nc2cc3[nH]ncc3cc2c(-c2ccc(F)cc2)c1C(C)C [Compound 156] . Output its pEC50 only.
-- reply > 5.94

Further cases:
-- ask // Input: COc1nc(C(=O)O)ccc1-c1nc2cc3[nH]ncc3cc2c(-c2ccc(F)cc2)c1C(C)C [Compound 158] . Output its pEC50 only.
-- reply > 5.94

-- ask // Input: CS(=O)(=O)c1c(Oc2ccc(C(=O)O)c(F)c2)nc2cc3[nH]ncc3cc2c1-c1ccc(F)cc1 [Compound 212] . Output its pEC50 only.
-- reply < 5.52

* * *

Recorded pEC50 values for a group of molecules are listed next.
molecular target: NL20 human bronchial epithelial cells expressing human Z-AAT (Homo sapiens, UniProt P01009, E366K); test: AAT Function Assay (MSD Assay NL20-SI Cell Line); conditions: functionally active AAT (AAT-hNE complex, MSD) from NL20 cells expressing human Z-AAT; read-out: NL20 Functional EC50
pEC50: −log10 of the molar value.

Completed entries (count: 4):
-- ask // Input: C[C@H](O)C(=O)N1CC(Oc2nc(C3CCOCC3)c(-c3cncc(F)c3)c3cc4cn[nH]c4cc23)C1 . Output its pEC50 only.
-- reply < 5.52

-- ask // Input: O=C(O)c1ccc(-c2nc(C3CCOCC3)c(-c3ccc(F)c(F)c3)c3cc4cn[nH]c4cc23)c(F)c1 . Output its pEC50 only.
-- reply 5.52 to 5.94

-- ask // Input: O=C(O)[C@H]1CC[C@H](Oc2nc(C3CCOCC3)c(-c3ccc(F)c(F)c3)c3cc4cn[nH]c4cc23)C1 . Output its pEC50 only.
-- reply > 5.94

-- ask // Input: O=C(O)c1ccc(Oc2nc(C3CCOCC3)c(-c3ccc(F)cc3)c3cc4cn[nH]c4cc23)cc1F . Output its pEC50 only.
-- reply > 5.94

Further cases:
-- ask // Input: CC(C)c1nc(O[C@H]2C[C@H](C(=O)O)C2)c2cc3[nH]ncc3cc2c1-c1ccc(F)cc1 . Output its pEC50 only.
-- reply > 5.94

-- ask // Input: CC(C)c1c(N2CC(C(=O)O)C2)nc2cc3[nH]ncc3cc2c1-c1ccc(F)cc1 . Output its pEC50 only.
-- reply < 5.52

Taken from patent US12624028B2.
